Origin of the recorded values: patent US20120058118A1

biological target: T1, human A-beta(1-40) peptide, monomeric (BAM) (human, biotin at the C-terminus in capture ELISA, SPR and TR-FRET; not biotinylated where coated directly (Example 7)); test: TR-FRET competition; labelled competitor not given
T1 construct: synthetic peptide (Anaspec), TFA/HFIP treated to give monomer; also called monomeric A-beta
endpoint: IC50 (nM)

* ABII023 (VHH, humanized variant of ABII002) VHH: EVQLLESGGGLVQPGGSLRLSCAHSGPTFRTDTMGWFRQAPGKGREFVAAVTWNSGRINYADSVKGRFTISRDNSKNAAYLQMNSLRPEDTAVYYCAAHRFVVGGNRVEDWRYWGQGTLVTVSS | 5.8
* ABII024 (VHH, humanized variant of ABII002) VHH: EVQLLESGGGLVQPGGSLRLSCAHSGPTFRTDTMGWFRQAPGKGREFVAAVTWNSGRINYADSVKGRFTISRDNSKNAAYLQMSSLRPEDTAVYYCAAHRFVVGGNRVEDWRYWGQGTLVTVSS | 6

P = ABII056 (VHH, humanized variant of ABII050) VHH: EVQLLESGGGLVQPGGSLRLSCAASGRTFNNYNMGWFRQAPGKGREFVAAVSRSGVSTYYADSVKGRFTISRDNAKNAVYLQMNSLRPEDTAIYYCAAAYRGTAINVRRSYDSWGQGTLVTVSS
Q = ABII033 (VHH, humanized variant of ABII002) VHH: EVQLLESGGGLVQPGGSLRLSCVHSGPTFRTDTMGWFRQAPGKGREFVAAVTWNSGRINYADSVKGRFTISRDNSKNAAYLQMSSLRPEDTAVYYCAAHRFVVGGNRVEDWRYWGQGTLVTVSS
R = ABII013 (VHH, humanized variant of ABII002) VHH: EVQLLESGGGLVLPGGSLRLSCVHSGPTFRTDTMGWFRQAPGKGREFVAAVTWNSGRINYADSVKGRFTVSRDNTRNAAYLQMSSLKDEDTAVYYCTAHRFVVGGNRVEDWRYWGQGTLVTVSS
Prompt line: Hey, can you sort those binders up there by IC50, smallest first? Answer by listing the labels in the order asked for.
Response line: R, Q, P
(R: 1.6 nM, Q: 4 nM, P: 29 nM)
